Experiment: accelerated stability test (sealed vial, 30° C., HPLC content and related substances)
Type: physicochemical
Conditions: month 0
// values below are reported Assay (%)

[
  {
    "COMPOUND": "CC[C@H]1OC(=O)[C@H](C)[C@@H](O[C@H]2C[C@@](C)(OC)[C@@H](O)[C@H](C)O2)[C@H](C)[C@@H](O[C@@H]2O[C@H](C)C[C@H](N(C)C)[C@H]2O)[C@](C)(O)C[C@@H](C)C(=O)[C@H](C)[C@@H](O)[C@]1(C)O.O.O.O.O.O.O.O=C(O)[C@H](O)[C@@H](O)[C@H](O[C@@H]1O[C@H](CO)[C@H](O)[C@H](O)[C@H]1O)[C@H](O)CO [erythromycin lactobionate hexahydrate]",
    "Assay (%)": "99.7%"
  },
  {
    "COMPOUND": "CC[C@H]1OC(=O)[C@H](C)[C@@H](O[C@H]2C[C@@](C)(OC)[C@@H](O)[C@H](C)O2)[C@H](C)[C@@H](O[C@@H]2O[C@H](C)C[C@H](N(C)C)[C@H]2O)[C@](C)(O)C[C@@H](C)C(=O)[C@H](C)[C@@H](O)[C@]1(C)O.O.O.O.O.O.O=C(O)[C@H](O)[C@@H](O)[C@H](O[C@@H]1O[C@H](CO)[C@H](O)[C@H](O)[C@H]1O)[C@H](O)CO [erythromycin lactobionate pentahydrate]",
    "Assay (%)": "99.9%"
  },
  {
    "COMPOUND": "CC[C@H]1OC(=O)[C@H](C)[C@@H](O[C@H]2C[C@@](C)(OC)[C@@H](O)[C@H](C)O2)[C@H](C)[C@@H](O[C@@H]2O[C@H](C)C[C@H](N(C)C)[C@H]2O)[C@](C)(O)C[C@@H](C)C(=O)[C@H](C)[C@@H](O)[C@]1(C)O.N#CS.O.O.O [erythromycin thiocyanate trihydrate]",
    "Assay (%)": "99.8%"
  },
  {
    "COMPOUND": "CC[C@H]1OC(=O)[C@H](C)[C@@H](O[C@H]2C[C@@](C)(OC)[C@@H](O)[C@H](C)O2)[C@H](C)[C@@H](O[C@@H]2O[C@H](C)C[C@H](N(C)C)[C@H]2O)[C@](C)(O)C[C@@H](C)C(=O)[C@H](C)[C@@H](O)[C@]1(C)O [erythromycin lactobionate trihydrate]",
    "Assay (%)": "99.9%"
  }
]

====

Assay: accelerated stability test (sealed vial, 30° C., HPLC content and related substances)
Type: physicochemical
Settings: month 1

[
  {
    "COMPOUND": "CC[C@H]1OC(=O)[C@H](C)[C@@H](O[C@H]2C[C@@](C)(OC)[C@@H](O)[C@H](C)O2)[C@H](C)[C@@H](O[C@@H]2O[C@H](C)C[C@H](N(C)C)[C@H]2O)[C@](C)(O)C[C@@H](C)C(=O)[C@H](C)[C@@H](O)[C@]1(C)O.N#CS.O.O.O [erythromycin thiocyanate trihydrate]",
    "Form": "off-white powder"
  },
  {
    "COMPOUND": "CC[C@H]1OC(=O)[C@H](C)[C@@H](O[C@H]2C[C@@](C)(OC)[C@@H](O)[C@H](C)O2)[C@H](C)[C@@H](O[C@@H]2O[C@H](C)C[C@H](N(C)C)[C@H]2O)[C@](C)(O)C[C@@H](C)C(=O)[C@H](C)[C@@H](O)[C@]1(C)O.O.O.O.O.O.O=C(O)[C@H](O)[C@@H](O)[C@H](O[C@@H]1O[C@H](CO)[C@H](O)[C@H](O)[C@H]1O)[C@H](O)CO [erythromycin lactobionate pentahydrate]",
    "Form": "off-white powder"
  },
  {
    "COMPOUND": "CC[C@H]1OC(=O)[C@H](C)[C@@H](O[C@H]2C[C@@](C)(OC)[C@@H](O)[C@H](C)O2)[C@H](C)[C@@H](O[C@@H]2O[C@H](C)C[C@H](N(C)C)[C@H]2O)[C@](C)(O)C[C@@H](C)C(=O)[C@H](C)[C@@H](O)[C@]1(C)O.N#CS.O.O [erythromycin thiocyanate dihydrate]",
    "Form": "off-white powder"
  }
]
